biological target: Acetylcholinesterase (Homo sapiens)
pIC50: −log10 of the molar value.
Label 1 (yes) when pIC50 is at or above 6; anything below gets 0 (no).

{"chemical_structure": "Nc1c2ccccc2nc2c1cnc1cc(Cl)ccc12", "discrete_label": "0 (no)"}
{"chemical_structure": "O=C(CCC1CCN(Cc2ccccc2)CC1)c1ccc2c(c1)CCCN2c1ccccc1", "discrete_label": "1 (yes)"}
{"chemical_structure": "Clc1ccc2c(NCCCCCCNc3c4c(nc5cc(Cl)ccc35)CCCC4)c3c(nc2c1)CCCC3", "discrete_label": "1 (yes)"}
{"chemical_structure": "c1ccc2c(NCCCCCCCNc3ccncc3)c3c(nc2c1)CCCC3", "discrete_label": "1 (yes)"}
{"chemical_structure": "O=C(CCC1CCN(Cc2cccc([N+](=O)[O-])c2)CC1)c1ccc2c(c1)NCCCC2", "discrete_label": "1 (yes)"}

query: For this compound, is measured pIC50 6 or higher? "CN(C)C(=O)Oc1cccc(-c2cn3c(C(F)(F)F)cccc3[n+]2C)c1"
result: 0 (no)

query: For this compound, is measured pIC50 6 or higher? "O=C1CCCCN1CCC1CCN(Cc2ccccc2)CC1"
result: 1 (yes)

query: For this compound, is measured pIC50 6 or higher? "c1ccc2c(NCCCCCCCCCNc3c4c(nc5ccccc35)CCCC4)ccnc2c1"
result: 1 (yes)

query: For this compound, is measured pIC50 6 or higher? "O=C(CCC1CCN(Cc2ccccc2)CC1)c1ccc2c(c1)CCN2c1ccccc1"
result: 1 (yes)

query: For this compound, is measured pIC50 6 or higher? "CN1CCCCc2ccc(C(=O)CCC3CCN(Cc4ccccc4)CC3)cc21"
result: 1 (yes)

query: For this compound, is measured pIC50 6 or higher? "CCCCCCNC(=O)Oc1cccc(CN(C)CCCOc2ccc3c(=O)c4cccnc4oc3c2)c1"
result: 1 (yes)

query: For this compound, is measured pIC50 6 or higher? "CC(=O)Nc1ccc2c(c1)C(=O)N(CCC1CCN(Cc3ccccc3)CC1)C2=O"
result: 1 (yes)

query: For this compound, is measured pIC50 6 or higher? "Clc1ccc2c(Nc3ccccc3)c3c(nc2c1)CCCC3"
result: 1 (yes)

query: For this compound, is measured pIC50 6 or higher? "COc1ccccc1CN(C)CCCCCC(=O)N(C)CCCCCCCCN(C)C(=O)CCCCCN(C)Cc1ccccc1OC"
result: 1 (yes)

query: For this compound, is measured pIC50 6 or higher? "O=C(c1ccccc1)N(CCC1CCN(Cc2ccccc2)CC1)c1ccccc1"
result: 1 (yes)

query: For this compound, is measured pIC50 6 or higher? "Cc1cc(-c2ccccc2)nnc1NCCN1CCOCC1"
result: 0 (no)

query: For this compound, is measured pIC50 6 or higher? "FC(F)(F)c1cc(-c2ccccc2)nnc1NCCN1CCOCC1"
result: 0 (no)

----------
molecular target: Acetylcholinesterase (Homo sapiens, UniProt P22303)
Sequence (P22303 whole entry): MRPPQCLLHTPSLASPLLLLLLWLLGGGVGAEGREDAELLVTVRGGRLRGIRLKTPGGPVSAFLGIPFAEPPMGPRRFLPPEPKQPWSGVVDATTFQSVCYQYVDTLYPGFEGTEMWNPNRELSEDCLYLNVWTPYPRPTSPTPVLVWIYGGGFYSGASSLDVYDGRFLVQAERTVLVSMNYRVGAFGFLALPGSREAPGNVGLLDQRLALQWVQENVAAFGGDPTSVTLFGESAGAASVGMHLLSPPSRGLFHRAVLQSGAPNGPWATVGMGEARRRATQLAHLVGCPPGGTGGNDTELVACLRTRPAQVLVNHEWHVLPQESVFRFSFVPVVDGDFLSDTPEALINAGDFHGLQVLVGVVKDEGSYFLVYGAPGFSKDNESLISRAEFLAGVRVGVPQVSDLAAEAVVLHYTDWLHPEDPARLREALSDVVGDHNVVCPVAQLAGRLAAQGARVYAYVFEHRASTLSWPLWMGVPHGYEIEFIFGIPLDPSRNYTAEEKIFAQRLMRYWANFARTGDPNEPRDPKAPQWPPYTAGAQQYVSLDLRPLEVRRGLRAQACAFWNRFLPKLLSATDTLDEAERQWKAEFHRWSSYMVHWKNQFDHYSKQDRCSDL
pIC50: −log10 of the molar value.
Label Yes when pIC50 is at or above 8; anything below gets No.

{"chemical_structure": "CNC(=O)Oc1cccc(CN(C)CCCCCCCOc2ccc3c(c2)O/C(=C\\c2cccc4ccccc24)C3=O)c1", "discrete_label": "Yes"}

Consider the record given below.
query: For this compound, is measured pIC50 8 or higher? "N#Cc1ccc2[nH]cc(CCC(=O)NCCCCCCNc3c4c(nc5cc(Cl)ccc35)CCCC4)c2c1"
result: Yes

Data provenance is ChEMBL document CHEMBL1155460.
